- PROCEDURE_DETAILS: chemical genetic growth profiling, strain panel (AID 1159580);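 also: tested at 20 µM; growth read once vehicle control cultures reached saturation at 30 °C; 1 = growth at the plate median or of vehicle wells; lower values mean less growth of the strain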
- ASSAY_CONDITIONS: S. cerevisiae deletion strains, growth OD, locus YGL248W, strain PDE1, stronger effect = lower value
Hit rate of the full screen: of about 5,500 compounds, about 2,000 (36%) were called active. Another 18% or so got no clear call; they are omitted. The list shows a part of the results.
READOUT_NAME: normalized growth
Lab note: record just the number, no unit beside it.

Before answering, review these 3 worked examples.
| MOLECULE | normalized growth |
| --- | --- |
| COc1ccc(CCC(=O)c2c(O)cc(O[C@@H]3O[C@H](CO)C(O)[C@H](O)C3O[C@@H]3O[C@@H](C)[C@H](O)[C@@H](O)[C@H]3O)cc2O)cc1O (some centres not stated) | 1 |
| CCCn1c(=O)c2[nH]c(C3CCCC3)nc2n(CCC)c1=O | 0.995 |
| C=C[C@@]1(C)CC(=O)[C@@]2(O)[C@](C)(O1)[C@@H](OC(C)=O)[C@@H](O)C1C(C)(C)CC[C@H](O)[C@@]12C (some centres not stated) | 0.982 |

Task item: State the recorded normalized growth for this entry: O=C(O)C(O)C(O)C(=O)O (configuration not stated)
Reply: 0.98

Task item: State the recorded normalized growth for this entry: CC(C)/C(O)=C1/C(=O)O[C@@H](c2ccoc2)[C@]2(C)C(O)[C@@H](O)[C@@]34OC5(C)OC67CC(C)(C(O)[C@]6(O)[C@@H](O)[C@]3(O5)C12)[C@H](CC(=O)O)[C@]74C (some centres not stated)
Reply: 0.997

Task item: State the recorded normalized growth for this entry: Clc1ccc(COC(Cn2ccnc2)c2ccc(Cl)cc2Cl)c(Cl)c1 (configuration not stated)
Reply: 0.0461

Task item: State the recorded normalized growth for this entry: CN[C@@H]1C(OC2[C@H](O[C@H]3[C@H](O)[C@@H](O)[C@H](N=C(N)N)[C@@H](O)[C@@H]3N=C(N)N)OC(C)[C@]2(O)CO)OC(CO)C(O)C1O (some centres not stated)
Reply: 0.975

Task item: State the recorded normalized growth for this entry: CN(C)C(=O)Oc1ccc[n+](C)c1
Reply: 1

Task item: State the recorded normalized growth for this entry: O=C1CCCCC/C=C/CCCCCCCCO1
Reply: 1

Task item: State the recorded normalized growth for this entry: CCCCCCCCCCCC(=O)OCC(COP(=O)(O)OCC(O)COP(=O)(O)OCC(COC(=O)CCCCCCCCCCC)OC(=O)CCCCCCCCCCC)OC(=O)CCCCCCCCCCC (configuration not stated)
Reply: 0.876

Task item: State the recorded normalized growth for this entry: Cc1cc(CC(=O)O)n(C)c1C(=O)c1ccc(Cl)cc1
Reply: 0.998

Task item: State the recorded normalized growth for this entry: CC(=O)OC1CC(O)C(C)(C)C2CC(=O)C3(C)C(CCC4(C)C(c5ccoc5)OC(=O)C5OC543)C12C (configuration not stated)
Reply: 1.01

Task item: State the recorded normalized growth for this entry: COC(=O)[C@@H]1OC(=O)C2OC23[C@@]1(C)CCC1[C@@]2(C)CCC(=O)C(C)(C)C2C[C@@H](OC(C)=O)[C@]13C (some centres not stated)
Reply: 1.05

Task item: State the recorded normalized growth for this entry: Fc1ccc([C@@H]2CCNC[C@H]2COc2ccc3c(c2)OCO3)cc1
Reply: 1.01

Task item: State the recorded normalized growth for this entry: COc1ccc2c(c1)OCC(Cc1ccc(OC)c(O)c1)C2=O (configuration not stated)
Reply: 0.9

Task item: State the recorded normalized growth for this entry: Cc1onc(-c2ccccc2)c1-c1ccc(S(N)(=O)=O)cc1
Reply: 1

Task item: State the recorded normalized growth for this entry: Cc1ccc(C(=O)c2ccc(CC(=O)O)n2C)cc1
Reply: 1.02

====

- PROCEDURE_DETAILS: chemical genetic growth profiling, strain panel (AID 1159580);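 also: tested at 20 µM; growth read once vehicle control cultures reached saturation at 30 °C; 1 = growth at the plate median or of vehicle wells; lower values mean less growth of the strain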
- ASSAY_CONDITIONS: S. cerevisiae deletion strains, growth OD, locus YBR229C, strain ROT2, stronger effect = lower value
Among all 5,500 compounds or so, about 2,000 (36%) were called active. Inconclusive results (about 18%) are left out. The list shows a part of the results.
Listed below: normalized growth values for each entry.
Lab note: record just the number, no unit beside it.

Before answering, review these 5 worked examples.
| MOLECULE | VAL |
| --- | --- |
| COc1c(C)c2c(c(O)c1C/C=C(\C)CCC(=O)O)C(=O)OC2 | 0.973 |
| FC(F)(F)Oc1ccccc1-c1nnc(-c2ccc(Cl)cc2)o1 | 0.968 |
| COc1cscc1C(N)=O | 0.984 |
| CC1(C)C(=O)[C@@H]2O[C@@H]2[C@@]2(C)C1C[C@@H](O)[C@]1(C)C2CC[C@@]2(C)[C@H](c3ccoc3)OC(=O)C3OC321 (stereo partly specified) | 1 |
| NCCCCNCCCN | 0.997 |

Task item: State the recorded normalized growth for this entry: O=[N+]([O-])c1ccc(C(O)C(O)CO)cc1 (stereo unspecified)
Reply: 0.981

Task item: State the recorded normalized growth for this entry: COP(=S)(OC)Oc1ccc([N+](=O)[O-])cc1
Reply: 0.96

Task item: State the recorded normalized growth for this entry: Cc1ccc(C(=O)c2ccc(CC(=O)O)n2C)cc1
Reply: 1

Task item: State the recorded normalized growth for this entry: CC(=O)OC1CC(OC(C)=O)C2(C)C(CC(OC(C)=O)C3(C)C2CCC2(C)C(c4ccoc4)OC(=O)C4OC423)C1(C)C (stereo unspecified)
Reply: 0.984

Task item: State the recorded normalized growth for this entry: CC(=O)N[C@@H](CCC(=O)O)C(=O)O
Reply: 1

Task item: State the recorded normalized growth for this entry: O=C1CSCC(=O)N1c1ccc(F)c(Cl)c1
Reply: 0.994

====

Listed below: normalized growth values for each entry.
- PROCEDURE_DETAILS: chemical genetic growth profiling, strain panel (AID 1159580);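 also: tested at 20 µM; growth read once vehicle control cultures reached saturation at 30 °C; 1 = growth at the plate median or of vehicle wells; lower values mean less growth of the strain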
- ASSAY_CONDITIONS: S. cerevisiae deletion strains, growth OD, locus YDR226W, strain ADK1, stronger effect = lower value
Screen size: about 5,500 compounds; about 2,000 (36%) were called active. Inconclusive results (about 18%) are left out. The list shows a part of the results.
Lab note: record just the number, no unit beside it.

Before answering, review these 10 worked examples.
| SMILES_REPR | normalized growth |
| --- | --- |
| O=C(Nc1cc(Cl)ccc1O)c1ccccc1CSc1ccc(Cl)cc1 | 0.976 |
| O=S(=O)(Nc1cc(Cl)c(Cl)cc1Cl)c1cc(C(F)(F)F)cc(C(F)(F)F)c1 | 0.956 |
| Nc1ccccc1C(=O)Nc1cc(C(F)(F)F)cc(C(F)(F)F)c1 | 0.976 |
| N/C(=N/O)c1ccc(Oc2ccc(C3SCCS3)cc2)c([N+](=O)[O-])c1 | 0.998 |
| Cc1noc(C)c1S(=O)(=O)Nc1csc(C(F)(F)F)c1-c1ccccc1 | 0.979 |
| O=S(=O)(Nc1csc(C(F)(F)F)c1-c1ccccc1)c1cc(Br)c(Br)s1 | 0.953 |
| O=S(=O)(NCc1ccc(C(F)(F)F)cc1)c1cccc(C(F)(F)F)c1 | 0.99 |
| Clc1ccccc1-c1csc(-c2ccncc2)n1 | 0.966 |
| O=S(=O)(NCc1ccc(C(F)(F)F)cc1)c1cc(Br)c(Br)s1 | 0.984 |
| Clc1ccc(-c2cnc(Nc3cc(Cl)cc(Cl)c3)s2)cc1 | 0.964 |

Task item: State the recorded normalized growth for this entry: Cc1ccccc1/C=C/c1c[nH]c2ccccc12
Reply: 0.949

Task item: State the recorded normalized growth for this entry: N#CC(C#N)=Cc1c(-c2ccccc2Cl)[nH]c2ccccc12
Reply: 0.956

Task item: State the recorded normalized growth for this entry: Clc1ccc(CSc2nccn2-c2cc(Cl)ccc2Cl)cc1
Reply: 0.954

Task item: State the recorded normalized growth for this entry: COc1ccc2c(c1)CCc1sc(NC(=O)c3ccco3)nc1-2
Reply: 0.957

====

- PROCEDURE_DETAILS: chemical genetic growth profiling, strain panel (AID 1159580);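 also: tested at 20 µM; growth read once vehicle control cultures reached saturation at 30 °C; 1 = growth at the plate median or of vehicle wells; lower values mean less growth of the strain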
- ASSAY_CONDITIONS: S. cerevisiae deletion strains, growth OD, locus YDL074C, strain BRE1, stronger effect = lower value
Hit rate of the full screen: of about 5,500 compounds, about 2,000 (36%) were called active. Roughly 18% stayed inconclusive and do not appear here. Some of the results follow.
Listed below: normalized growth values for each entry.
Lab note: record just the number, no unit beside it.

Before answering, review these 4 worked examples.
| COMPOUND | normalized growth |
| --- | --- |
| COc1cc(C)c2c(=O)cc(-c3ccccc3)oc2c1 | 0.896 |
| Cc1nnc(NS(=O)(=O)c2ccc(N)cc2)s1 | 1.05 |
| CN1CCC[C@@H]1CCO[C@](C)(c1ccccc1)c1ccc(Cl)cc1 | 0.817 |
| COc1ccc2oc(-c3ccccc3)c(OC)c(=O)c2c1 | 0.71 |

Task item: State the recorded normalized growth for this entry: Cc1cc(/C=C/c2ccc3cc(N(C)C)ccc3[n+]2C)c(C)n1-c1ccccc1
Reply: 0.653

Task item: State the recorded normalized growth for this entry: Clc1ccc(C(c2ccccc2Cl)C(Cl)Cl)cc1 (stereo not given)
Reply: 0.956
